Examples of compounds with documented Post-emergence efficacy against SETVI in % follow.
# Test system: Setaria viridis (SETVI)
# TEST_PROTOCOL: E. Herbicidal post-emergence efficacy, SETVI
# Format: in vivo
# EXPERIMENTAL_CONDITIONS: application rate 80 g/ha
REPORTED_METRIC: Post-emergence efficacy against SETVI in %

{"CPD_SMILES": "O=S(=O)(CCCC(F)(F)F)Oc1c(Cl)cccc1Oc1ncc(Cl)cn1", "ENDPOINT_RESULT": "100%"}
{"CPD_SMILES": "O=S(=O)(CCCC(F)(F)F)Oc1c(F)cccc1Oc1ncc(F)cn1", "ENDPOINT_RESULT": "100%"}
{"CPD_SMILES": "O=S(=O)(CC1CC1)Oc1ccccc1Oc1ncc(Cl)cn1", "ENDPOINT_RESULT": "80%"}
{"CPD_SMILES": "O=S(=O)(CC1CC(F)(F)C1)Oc1c(F)cccc1Oc1ncc(Cl)cn1", "ENDPOINT_RESULT": "100%"}
{"CPD_SMILES": "CCCCS(=O)(=O)Oc1ccccc1Oc1ncc(Cl)cn1", "ENDPOINT_RESULT": "90%"}
{"CPD_SMILES": "O=S(=O)(CCCC(F)(F)F)Oc1ccccc1Oc1ncc(Cl)cn1", "ENDPOINT_RESULT": "100%"}
{"CPD_SMILES": "O=S(=O)(CCCCl)Oc1c(F)cccc1Oc1ncc(Cl)cn1", "ENDPOINT_RESULT": "100%"}
{"CPD_SMILES": "O=S(=O)(CCC1CC1)Oc1c(F)cccc1Oc1ncc(Cl)cn1", "ENDPOINT_RESULT": "80%"}
{"CPD_SMILES": "O=S(=O)(CCC(F)(F)F)Oc1ccccc1Oc1ncc(Cl)cn1", "ENDPOINT_RESULT": "90%"}

* * *

# System: Triticum aestivum (TRZAS)
# TEST_PROTOCOL: F. Post-emergence effect on useful plants, TRZAS
# Assay type: in vivo
# EXPERIMENTAL_CONDITIONS: useful plant, application rate 320 g/ha
REPORTED_METRIC: Post-emergence efficacy against TRZAS in %

{"CPD_SMILES": "O=S(=O)(CCCC(F)(F)C(F)(F)F)Oc1c(F)cccc1Oc1ncc(Cl)cn1", "ENDPOINT_RESULT": "20%"}
{"CPD_SMILES": "Cc1cccc(Oc2ncc(F)cn2)c1OS(=O)(=O)CCC(F)(F)F", "ENDPOINT_RESULT": "0%"}
{"CPD_SMILES": "O=S(=O)(CCCC(F)(F)F)Oc1c(Cl)cccc1Oc1ncc(Cl)cn1", "ENDPOINT_RESULT": "20%"}

* * *

# Tested on: Echinochloa crus-galli (ECHCG)
# TEST_PROTOCOL: A. Herbicidal pre-emergence efficacy, ECHCG
# Type: in vivo
# EXPERIMENTAL_CONDITIONS: 320 g/ha; scored visually after about 3 weeks vs untreated controls
Form field: Pre-emergence efficacy against ECHCG (one value per entry).
REPORTED_METRIC: Pre-emergence efficacy against ECHCG (%)

{"MOLECULE": "O=S(=O)(CCC(F)(F)F)Oc1c(F)cccc1Oc1ncc(Cl)cn1 [Example I-48]", "ENDPOINT_RESULT": 90}
{"MOLECULE": "O=S(=O)(CCC1CC1)Oc1c(F)cccc1Oc1ncc(Cl)cn1 [Example I-55]", "ENDPOINT_RESULT": 100}
{"MOLECULE": "CCS(=O)(=O)Oc1ccccc1Oc1ncc(Cl)cn1 [Example I-16]", "ENDPOINT_RESULT": 90}
{"MOLECULE": "O=S(=O)(CCC(F)(F)F)Oc1ccccc1Oc1ncc(Cl)cn1 [Example I-8]", "ENDPOINT_RESULT": 90}
{"MOLECULE": "Cc1cccc(Oc2ncc(F)cn2)c1OS(=O)(=O)CCCC(F)(F)F [Example I-46]", "ENDPOINT_RESULT": 100}
{"MOLECULE": "C=CCCS(=O)(=O)Oc1c(F)cccc1Oc1ncc(Cl)cn1 [Example I-50]", "ENDPOINT_RESULT": 90}
{"MOLECULE": "O=S(=O)(CCCC(F)(F)F)Oc1ccccc1Oc1ncc(Cl)cn1 [Example I-10]", "ENDPOINT_RESULT": 100}
{"MOLECULE": "Cc1cccc(Oc2ncc(F)cn2)c1OS(=O)(=O)CCC(F)(F)F [Example I-45]", "ENDPOINT_RESULT": 100}
{"MOLECULE": "O=S(=O)(CCCCl)Oc1c(F)cccc1Oc1ncc(Cl)cn1 [Example I-14]", "ENDPOINT_RESULT": 100}

* * *

# key: entry, value: Post-emergence efficacy against ABUTH in %
# System: Abutilon theophrasti (ABUTH)
# TEST_PROTOCOL: B. Herbicidal post-emergence efficacy, ABUTH
# Assay type: in vivo
# EXPERIMENTAL_CONDITIONS: 1280 g/ha, rated visually after about 3 weeks
REPORTED_METRIC: Post-emergence efficacy against ABUTH in % (%)

{"COMPOUND": "O=S(=O)(CCC(F)(F)F)Oc1c(Br)cccc1Oc1ncc(Cl)cn1 [Example I-31]", "ENDPOINT_RESULT": 100}
{"COMPOUND": "O=S(=O)(CCC1CC1(Cl)Cl)Oc1c(F)cccc1Oc1ncc(Cl)cn1 (stereo not shown) [Example I-51]", "ENDPOINT_RESULT": 90}
{"COMPOUND": "COCCS(=O)(=O)Oc1c(F)cccc1Oc1ncc(Cl)cn1 [Example I-52]", "ENDPOINT_RESULT": 90}
{"COMPOUND": "Cc1cccc(Oc2ncc(Cl)cn2)c1OS(=O)(=O)CCC(F)(F)F [Example I-29]", "ENDPOINT_RESULT": 100}
{"COMPOUND": "O=S(=O)(CCCCl)Oc1c(F)cccc1Oc1ncc(Cl)cn1 [Example I-14]", "ENDPOINT_RESULT": 100}
{"COMPOUND": "O=S(=O)(CCC(F)(F)F)Oc1c(F)cccc1Oc1ncc(F)cn1 [Example I-47]", "ENDPOINT_RESULT": 100}
{"COMPOUND": "O=S(=O)(CC1CC1)Oc1ccccc1Oc1ncc(Cl)cn1 [Example I-23]", "ENDPOINT_RESULT": 100}
{"COMPOUND": "O=S(=O)(CCCCl)Oc1ccccc1Oc1ncc(Br)cc1F [Example I-65]", "ENDPOINT_RESULT": 90}
{"COMPOUND": "O=S(=O)(CCCCl)Oc1ccccc1Oc1ncc(Cl)cc1F [Example I-64]", "ENDPOINT_RESULT": 90}
{"COMPOUND": "O=S(=O)(CCC(F)(F)F)Oc1c(F)cccc1Oc1ncc(Cl)cn1 [Example I-48]", "ENDPOINT_RESULT": 90}
{"COMPOUND": "N#Cc1ccc(Oc2ccccc2OS(=O)(=O)CCCCl)nc1 [Example I-58]", "ENDPOINT_RESULT": 90}
{"COMPOUND": "O=S(=O)(CC1CC1(Cl)Cl)Oc1c(Br)cccc1Oc1ncc(Cl)cn1 (stereo not shown) [Example I-77]", "ENDPOINT_RESULT": 100}
{"COMPOUND": "Cc1cccc(Oc2ncc(F)cn2)c1OS(=O)(=O)CCCC(F)(F)F [Example I-46]", "ENDPOINT_RESULT": 100}
{"COMPOUND": "O=S(=O)(CCCCl)Oc1ccccc1Oc1ncc(F)cn1 [Example I-5]", "ENDPOINT_RESULT": 100}
{"COMPOUND": "O=S(=O)(CCCC(F)(F)F)Oc1c(Cl)cccc1Oc1ncc(Cl)cn1 [Example I-39]", "ENDPOINT_RESULT": 90}
{"COMPOUND": "CCCCCS(=O)(=O)Oc1ccccc1Oc1ncc(Cl)cn1 [Example I-24]", "ENDPOINT_RESULT": 90}
{"COMPOUND": "O=S(=O)(CCCCCl)Oc1ccccc1Oc1ncc(Cl)cn1 [Example I-15]", "ENDPOINT_RESULT": 100}
{"COMPOUND": "O=S(=O)(CC=C(Cl)Cl)Oc1c(Br)cccc1Oc1ncc(Cl)cn1 [Example I-84]", "ENDPOINT_RESULT": 90}
{"COMPOUND": "O=S(=O)(CCC1CC1)Oc1c(F)cccc1Oc1ncc(Cl)cn1 [Example I-55]", "ENDPOINT_RESULT": 90}
{"COMPOUND": "Cc1cccc(Oc2ncc(Br)cn2)c1OS(=O)(=O)CCCC(F)(F)F [Example I-35]", "ENDPOINT_RESULT": 100}
{"COMPOUND": "O=S(=O)(CCCC(F)(F)F)Oc1c(Br)cccc1Oc1ncc(Cl)cn1 [Example I-30]", "ENDPOINT_RESULT": 100}
{"COMPOUND": "C=CCCS(=O)(=O)Oc1c(F)cccc1Oc1ncc(Cl)cn1 [Example I-50]", "ENDPOINT_RESULT": 90}
{"COMPOUND": "O=S(=O)(CCCC(F)F)Oc1c(F)cccc1Oc1ncc(Cl)cn1 [Example I-56]", "ENDPOINT_RESULT": 90}
{"COMPOUND": "Cc1cccc(Oc2ncc(F)cn2)c1OS(=O)(=O)CCC(F)(F)F [Example I-45]", "ENDPOINT_RESULT": 100}
{"COMPOUND": "CCCCS(=O)(=O)Oc1ccccc1Oc1ncc(Cl)cn1 [Example I-6]", "ENDPOINT_RESULT": 90}
{"COMPOUND": "CCC(C)S(=O)(=O)Oc1ccccc1Oc1ncc(Cl)cn1 (stereo not shown) [Example I-22]", "ENDPOINT_RESULT": 100}
{"COMPOUND": "O=S(=O)(Oc1ccccc1Oc1ncc(Cl)cn1)C1CCCC1 [Example I-19]", "ENDPOINT_RESULT": 90}
{"COMPOUND": "N#Cc1cc(Cl)cnc1Oc1ccccc1OS(=O)(=O)CCCCl [Example I-59]", "ENDPOINT_RESULT": 90}
{"COMPOUND": "CC(C)CS(=O)(=O)Oc1ccccc1Oc1ncc(Cl)cn1 [Example I-7]", "ENDPOINT_RESULT": 90}
{"COMPOUND": "CC(C)S(=O)(=O)Oc1ccccc1Oc1ncc(Cl)cn1 [Example I-18]", "ENDPOINT_RESULT": 90}
{"COMPOUND": "O=S(=O)(CCCCl)Oc1cccc(F)c1Oc1ncc(Cl)cn1 [Example I-13]", "ENDPOINT_RESULT": 90}
{"COMPOUND": "Cc1cccc(Oc2ncc(Cl)cn2)c1OS(=O)(=O)CC1CC1(Cl)Cl (stereo not shown) [Example I-76]", "ENDPOINT_RESULT": 100}
{"COMPOUND": "O=S(=O)(CCC(F)=C(F)F)Oc1c(Br)cccc1Oc1ncc(Cl)cn1 [Example I-72]", "ENDPOINT_RESULT": 100}
{"COMPOUND": "O=S(=O)(CCCCl)Oc1ccccc1Oc1ncc(Cl)cn1 [Example I-2]", "ENDPOINT_RESULT": 100}
{"COMPOUND": "O=S(=O)(CCCC(F)(F)F)Oc1c(Cl)cccc1Oc1ncc(Br)cn1 [Example I-34]", "ENDPOINT_RESULT": 100}
{"COMPOUND": "O=S(=O)(CCCC(F)(F)F)Oc1ccccc1Oc1ccc(Cl)cn1 [Example I-26]", "ENDPOINT_RESULT": 90}
{"COMPOUND": "O=S(=O)(CCCC(F)(F)C(F)(F)F)Oc1c(Br)cccc1Oc1ncc(Cl)cn1 [Example I-67]", "ENDPOINT_RESULT": 100}
